- Read-out: Lipase C (LIPC), LIPC (gene 3990)
- assay procedure: LTEA_HepaRG_LIPC: Life Technologies and Expression Analysis (LTEA) Assay for Lipase C (LIPC) using HepaRG (AID 2283514)
- assay context: mRNA level, 48 h; actives raise or lower the signal
Active and inactive are the calls of the source. How the source made its calls: active means hit-call score of the fitted dose curve at least 0.9, where 1 is the maximum; inactive means score below 0.9.
// classify into active, inactive

Please review the entries below; each comes with its answer.
Cc1cn([C@H]2C[C@H](N=[N+]=[N-])[C@@H](CO)O2)c(=O)[nH]c1=O: inactive
CC/C(=C(/CC)c1ccc(O)cc1)c1ccc(O)cc1: inactive
O=C1CCC(C2CCCCC2)CC1: inactive

Short answer needed: outcome of this test for `O=C1O[C@H]([C@@H](O)CO)C(O)=C1O` ?
inactive

Short answer needed: outcome of this test for `O=C(Nc1ccc(Cl)cc1)Nc1ccc(Cl)c(Cl)c1` ?
active

Short answer needed: outcome of this test for `CCCCCCCCOC(=O)c1cc(O)c(O)c(O)c1` ?
inactive

Short answer needed: outcome of this test for `Cc1cccc2ccccc12` ?
inactive

----------
- experimental system: Estrogen receptor (Homo sapiens) (UniProt P03372)
- Sequence (P03372 whole entry, looked up): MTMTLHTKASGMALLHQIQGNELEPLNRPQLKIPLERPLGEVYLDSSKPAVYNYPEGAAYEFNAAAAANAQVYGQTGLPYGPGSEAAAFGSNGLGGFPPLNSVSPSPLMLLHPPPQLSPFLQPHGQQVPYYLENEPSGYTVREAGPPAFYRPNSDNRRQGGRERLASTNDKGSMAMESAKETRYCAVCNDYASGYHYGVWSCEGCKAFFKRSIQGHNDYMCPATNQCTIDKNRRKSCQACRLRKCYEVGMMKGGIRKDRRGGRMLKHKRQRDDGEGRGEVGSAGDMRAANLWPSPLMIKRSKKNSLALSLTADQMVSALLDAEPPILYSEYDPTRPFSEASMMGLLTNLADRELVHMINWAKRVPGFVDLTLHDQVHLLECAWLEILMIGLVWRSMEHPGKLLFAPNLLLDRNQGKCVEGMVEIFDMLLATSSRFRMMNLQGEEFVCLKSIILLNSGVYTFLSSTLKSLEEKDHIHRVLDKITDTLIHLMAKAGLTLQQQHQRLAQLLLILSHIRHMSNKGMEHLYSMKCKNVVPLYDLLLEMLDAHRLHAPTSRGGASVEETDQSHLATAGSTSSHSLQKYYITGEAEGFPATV
- assay procedure: ATG_ERa_TRANS: Attagene TRANS-FACTORIAL HepG2 Assay for human Estrogen Receptor alpha (ERa) (AID 2282970)
- assay context: HepG2 Attagene TRANS ERa GAL4 reporter, mRNA
Inconclusive results are not listed. The source made the active and inactive calls. The calls were made as follows: active = hit-call score of the fitted dose curve at least 0.9, where 1 is the maximum; inconclusive = response in the unintended direction; inactive = score below 0.9.
// classify into 1 (yes) (active), 0 (no) (inactive)

O=C(OCCCCCCOC(=O)c1ccccc1)c1ccccc1: 0 (no)

Short answer needed: outcome of this test for `CN(C)C(=O)C1(N2CCCCC2)CCN(CC[C@@]2(c3ccc(Cl)c(Cl)c3)CN(C(=O)c3ccccc3)CCO2)CC1` ?
0 (no)

Short answer needed: outcome of this test for `O=C(O)c1ccccc1C(=O)OCc1ccccc1` ?
0 (no)

Short answer needed: outcome of this test for `Clc1ccccc1C(c1ccccc1)(c1ccccc1)n1ccnc1` ?
0 (no)

Short answer needed: outcome of this test for `CCCCCCCCOc1ccc(C(=O)c2ccccc2)c(O)c1` ?
0 (no)

Short answer needed: outcome of this test for `CC1=CC(=O)/C(=C(/C)O)C(=O)O1` ?
0 (no)

Short answer needed: outcome of this test for `CC(C)(O)c1ccc(CNC(=O)c2cccnc2Oc2ccc3nonc3c2)cc1` ?
0 (no)

----------
- assay procedure: BSK_hDFCGF_Proliferation: Cell Proliferation Assessment in the BioMAP Diversity Plus: hDFCGF Assay (AID 2283059);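 further: curves fitted for both rise and fall of signal versus DMSO baseline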
- assay context: primary human foreskin fibroblasts
The source made the active and inactive calls. Rule for the calls: active = hit-call score of the fitted dose curve at least 0.9, where 1 is the maximum; inactive = score below 0.9.
// classify into true (1) for active, false (0) for inactive

Cc1cc(F)ccc1-c1cc(N2CC[C@@H](O)[C@H]2CO)ncc1N(C)C(=O)C(C)(C)c1cc(C(F)(F)F)cc(C(F)(F)F)c1: true (1)
COc1ccc2cc(S(=O)(=O)N[C@H](CC(=O)N[C@H](Cc3ccc(CN4[C@H](C)CCC[C@@H]4C)cc3)C(=O)N(C)C(C)C)c3ccc4c(c3)OCO4)ccc2c1: true (1)
CCCCCCCCCCCC[N+](C)(C)C: true (1)
Cc1cccc2ccccc12: false (0)
Clc1ccccc1C(c1ccccc1)(c1ccccc1)n1ccnc1: true (1)
CCCCCCCCCCCO: true (1)

Short answer needed: outcome of this test for `CCCC(=O)OCCC(C)C` ?
false (0)

Short answer needed: outcome of this test for `Clc1cc(Cl)c2c(c1)N=C1CCCCCN1C2` ?
false (0)

Short answer needed: outcome of this test for `Oc1ccc2ccccc2c1` ?
false (0)

Short answer needed: outcome of this test for `O=C(OCCCCCCOC(=O)c1ccccc1)c1ccccc1` ?
false (0)

Short answer needed: outcome of this test for `CCCCCCCCOC(=O)c1cc(O)c(O)c(O)c1` ?
true (1)

Short answer needed: outcome of this test for `O=C(O)Cc1cc(I)c(Oc2ccc(O)c(I)c2)c(I)c1` ?
true (1)

All values here come from PubChem BioAssay (EPA / NIEHS).
